test system: iPSC-CMs, iPSC-ECs and HUVECs phenotypes; assay: ToxPi 2.0 integration of POD values and physicochemical descriptors; set-up: species or system human; settings: ToxPi-scaled (0-1) score; HUVECs, 24 h
assayEndpoint: huvec.cyto.24hr
Could you keep your reply to the number by itself?

What value of huvec.cyto.24hr has been reported for the following compound? Oc1ccc(O)c(-c2ccc(Cl)cc2)c1 [2',5'-diOH-PCB 3, 4-Chloro-2′,5′-dihydroxybiphenyl]
0.7001

Let us now turn to Clc1ccc(-c2cc(Cl)c(Cl)c(Cl)c2)cc1Cl [PCB 126, 3,3′,4,4′,5-pentachlorobiphenyl]
0.3035

Let us now turn to Clc1ccc(-c2ccccc2)cc1 [PCB 3, 4-chlorobiphenyl]
0

Let us now turn to O=C1C=CC(=O)C(c2ccc(Cl)cc2)=C1 [4-Cl-BQ, 2-(4-Chlorophenyl)benzo-2,5-quinone]
1

---

tested on: iCell endothelial cells (human iPSC-derived ECs); test: High-content imaging cytotoxicity in iCell endothelial cells, 24 h; assay type: cell-based; settings: Homo sapiens, Endothelial cell, iPSC-EC, 24 hr, 10.00 µM, 0.00 µM control = 100.00, read-out: endo.tc.24hrs
Structures can show the parent of a compound that is named as a salt.
assayEndpoint: viability at 10 µM (%)
API: value field is a number in %; no unit string.

Find viability at 10 µM (iCell endothelial cells (human iPSC-derived ECs)) for the entry O=S(=O)(O)Oc1cccc(-c2ccc(Cl)cc2)c1 [3'-yl PCB 3 sulfate]
98.7

Let us now turn to "Clc1cccc(-c2cccc(Cl)c2)c1"
99

Let us now turn to "Oc1cc(Cl)cc(-c2cccc(Cl)c2)c1"
102

Let us now turn to "Oc1ccc(-c2cccc(Cl)c2)cc1Cl"
106

Let us now turn to "COc1ccc(-c2cccc(Cl)c2)cc1Cl"
100

---

I'd appreciate it if you could supply cm.bpm.90min values for the items below.
test system: iPSC-CMs, iPSC-ECs and HUVECs phenotypes; assay: ToxPi 2.0 integration of POD values and physicochemical descriptors; design: species or system human; details: ToxPi-scaled (0-1) score; iPSC cardiomyocytes, 90 min
Could you keep your reply to the number by itself?

What value of cm.bpm.90min has been reported for the following compound? "Clc1ccc(-c2ccccc2)cc1"
0.3832

Let us now turn to "Oc1ccccc1-c1ccc(Cl)cc1"
0.6048

Let us now turn to "Oc1cccc(-c2ccc(Cl)cc2)c1"
0.8835

Let us now turn to "Clc1ccc(-c2cc(Cl)c(Cl)c(Cl)c2)cc1Cl"
0.8534

Let us now turn to "COc1ccc(-c2ccc(Cl)cc2)cc1"
0.4231

Let us now turn to Clc1ccc(Cl)c(-c2c(Cl)ccc(Cl)c2Cl)c1Cl [(-)-PCB 136, 2,2′,3,3′,6,6′-hexachlorobiphenyl]
0.26

Let us now turn to Oc1ccc(O)c(-c2ccc(Cl)cc2)c1 [2',5'-diOH-PCB 3, 4-Chloro-2′,5′-dihydroxybiphenyl]
0.1802

---

tested on: iCell cardiomyocytes (human iPSC-derived cardiomyocytes); assay: Intracellular Ca2+ flux / beating parameters in iCell cardiomyocytes (FLIPR tetra), 90 min or 24 h; type: cell-based; settings: Homo sapiens, Cardiomyocyte, 24 h, 10.00 µM; 0.00 µM = 100.00; read-out: cm.bpm.24hrs
Where a name gives a salt, the structure may show the parent alone.
assayEndpoint: activity at 10 µM (%)
API: value field is a number in %; no unit string.

Find activity at 10 µM (iCell cardiomyocytes (human iPSC-derived cardiomyocytes)) for the entry O=S(=O)(O)Oc1cc(-c2ccccc2)ccc1Cl [3-yl PCB 3 sulfate]
94.5

Let us now turn to O=S(=O)(O)Oc1cccc(-c2ccc(Cl)cc2)c1 [3'-yl PCB 3 sulfate]
101

Let us now turn to "Oc1cc(Cl)cc(-c2cccc(Cl)c2)c1"
114

Let us now turn to "COc1ccc(-c2cccc(Cl)c2)cc1Cl"
123
